- study system: hGPR38R (Homo sapiens)
- measurement protocol: GPR38 FLIPR functional agonist assay
- Type: cell-based
- Design: expressed in transfected cells
- condition set: HEK-293 cells stably expressing the GPR38 receptor; agonist response, Fluo-4 fluorescence; read-out: pEC50 in the FLIPR assay (converted)
- Sequence (O43193 whole entry): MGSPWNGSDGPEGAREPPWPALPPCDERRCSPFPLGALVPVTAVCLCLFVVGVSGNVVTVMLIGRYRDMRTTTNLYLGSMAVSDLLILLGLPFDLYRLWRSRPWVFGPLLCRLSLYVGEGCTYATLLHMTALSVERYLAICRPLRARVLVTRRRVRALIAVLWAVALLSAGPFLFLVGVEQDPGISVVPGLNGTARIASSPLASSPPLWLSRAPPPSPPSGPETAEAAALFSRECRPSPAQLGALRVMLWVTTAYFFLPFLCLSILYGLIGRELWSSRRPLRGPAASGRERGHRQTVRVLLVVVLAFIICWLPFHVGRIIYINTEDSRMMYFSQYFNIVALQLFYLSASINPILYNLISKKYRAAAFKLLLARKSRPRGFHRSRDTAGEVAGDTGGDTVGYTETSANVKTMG
Structures can show the parent of a compound that is named as a salt.
Exercise: state measured EC50 for each of the compounds provided.

Simply: C[C@@H]1CN(Cc2ccc(-c3cccnc3C(=O)N3CCC(Nc4cccc(F)c4)C3)cc2)C[C@H](C)N1 (some centres unmarked) [Example 33] , hGPR38R (Homo sapiens), EC50 = < 316 nM

Simply: C[C@@H]1CN(Cc2ccc(-c3cccnc3S(=O)(=O)N3CCC(Nc4ccccc4F)CC3)cc2F)C[C@H](C)N1 [Example 20] , hGPR38R (Homo sapiens), EC50 = < 1000 nM

Simply: COc1cc(NC2CCN(C(=O)c3ncccc3-c3ccc(CN4C[C@@H](C)N[C@@H](C)C4)c(F)c3)CC2)ccc1F [Example 28] , hGPR38R (Homo sapiens), EC50 = < 316 nM

Simply: C[C@@H]1CN(Cc2ccc(-c3cccnc3C(=O)N3CCC(Oc4cccc(F)c4)CC3)cc2)C[C@H](C)N1 [Example 34] , hGPR38R (Homo sapiens), EC50 = < 316 nM

Simply: C[C@@H]1CN(Cc2ccc(-c3cccnc3C(=O)N3CC[C@H](Oc4ccc(F)cc4)C3)cc2)C[C@H](C)N1 [Example 18] , hGPR38R (Homo sapiens), EC50 = < 316 nM

Simply: C[C@@H]1CN(Cc2ccc(-c3cccnc3C(=O)N3CCC(Nc4cccc(C#N)c4)CC3)cc2)C[C@H](C)N1 [Example 29] , hGPR38R (Homo sapiens), EC50 = < 316 nM

Simply: Cc1nc(CN(C)C(=O)CCc2ccc(F)cc2)c(-c2ccc(CN3C[C@@H](C)N[C@@H](C)C3)cc2)s1 [Example 6, dihydrochloride] , hGPR38R (Homo sapiens), EC50 = < 316 nM

Simply: C[C@@H]1CN(Cc2ccc(-c3cccnc3C(=O)N3CCC(Oc4cccc(F)c4)CC3)cc2F)C[C@H](C)N1 [Example 35] , hGPR38R (Homo sapiens), EC50 = < 316 nM

----------
- study system: hGPR38R (Homo sapiens)
- measurement protocol: GPR38 GTPγS functional agonist assay
- Assay type: biochemical
- Parameters: expressed in transfected cells; host or cells: HEK293 (transient transfection; P2 membrane fractions)
- Procedure: The potencies and intrinsic activities of the compounds of this invention can also be determined according to the [35S]GTPγS functional assay which is described herein. […] The plate is incubated on a shaker at 25° C. for 30 min followed by centrifugation for 5 min at 1500 rpm. The plate is read between 3 and 6 h after completion of centrifuge run in a Wallac Microbeta counter on a 1 min normalised tritium count protocol. Data is analysed using a 4-parameter logistic equation. […]
- Sequence (O43193 whole entry): as above
- Sequence (P09471 2-354 partner limits assumed): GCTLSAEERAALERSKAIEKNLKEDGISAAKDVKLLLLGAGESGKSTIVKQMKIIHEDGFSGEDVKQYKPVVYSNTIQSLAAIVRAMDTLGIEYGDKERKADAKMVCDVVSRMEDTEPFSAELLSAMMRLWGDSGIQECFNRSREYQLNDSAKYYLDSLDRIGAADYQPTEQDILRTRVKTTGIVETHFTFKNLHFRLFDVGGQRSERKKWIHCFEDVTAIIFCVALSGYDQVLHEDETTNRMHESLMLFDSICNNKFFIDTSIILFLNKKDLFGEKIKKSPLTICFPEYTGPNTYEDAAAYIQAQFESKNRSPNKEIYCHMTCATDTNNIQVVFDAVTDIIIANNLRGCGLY
- Sequence (P62873 2-340 partner limits assumed): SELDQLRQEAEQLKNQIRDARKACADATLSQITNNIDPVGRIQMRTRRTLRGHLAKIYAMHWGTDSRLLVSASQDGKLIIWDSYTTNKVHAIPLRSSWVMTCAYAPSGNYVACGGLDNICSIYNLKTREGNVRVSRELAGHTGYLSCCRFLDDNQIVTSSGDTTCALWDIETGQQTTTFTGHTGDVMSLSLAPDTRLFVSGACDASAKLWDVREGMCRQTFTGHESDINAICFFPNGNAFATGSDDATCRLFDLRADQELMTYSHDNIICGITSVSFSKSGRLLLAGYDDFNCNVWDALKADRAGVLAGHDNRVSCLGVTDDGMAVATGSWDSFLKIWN
- Sequence (P59768 2-68 partner limits assumed): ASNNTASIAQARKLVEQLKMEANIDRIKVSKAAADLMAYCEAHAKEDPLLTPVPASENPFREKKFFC
property name: EC50

The compound identified as C[C@@H]1CN(Cc2ccc(-c3cccnc3C(=O)N3CCC(Nc4cccc(F)c4)CC3)cc2F)C[C@H](C)N1 registered its EC50 at < 3.16 µM

The compound identified as COc1cc(-c2cccnc2C(=O)N2CCC(Nc3ccc(F)cc3)CC2)ccc1CN1C[C@@H](C)N[C@@H](C)C1 registered its EC50 at < 3.16 µM

The compound identified as C[C@@H]1CN(Cc2ccc(-n3ccnc3C(=O)N3CCC(Nc4ccccc4F)CC3)cc2)C[C@H](C)N1 registered its EC50 at < 3.16 µM

The compound identified as C[C@@H]1CN(Cc2ccc(-c3cccnc3C(=O)N3CCC(Nc4cccc(F)c4)CC3)cc2)C[C@H](C)N1 registered its EC50 at < 3.16 µM

The compound identified as C[C@H]1CN(Cc2ccc(-c3cccnc3C(=O)N3CCC(Nc4ccc(F)cc4)CC3)cc2)CCN1 registered its EC50 at < 3.16 µM

The compound identified as C[C@@H]1CN(Cc2ccc(-n3ccnc3C(=O)N3CCC(Nc4ccc(F)cc4)CC3)cc2F)C[C@H](C)N1 registered its EC50 at < 3.16 µM

The compound identified as C[C@H]1CN(Cc2ccc(-c3cccnc3C(=O)N3CCC(Nc4cccc(F)c4)CC3)cc2)CCN1 registered its EC50 at < 3.16 µM

The compound identified as C[C@@H]1CN(Cc2ccc(-n3ccnc3C(=O)N3CCC(Nc4cccc(F)c4)CC3)cc2F)C[C@H](C)N1 registered its EC50 at < 3.16 µM

The compound identified as C[C@@H]1CN(Cc2ccc(-c3cccnc3C(=O)N3CCC(Nc4ccc(F)c(F)c4)CC3)cc2F)C[C@H](C)N1 registered its EC50 at < 3.16 µM

The compound identified as C[C@@H]1CN(Cc2ccc(-c3cccnc3C(=O)N3CCC(Nc4ccccc4F)CC3)cc2)C[C@H](C)N1 registered its EC50 at < 3.16 µM

The compound identified as C[C@@H]1CN(Cc2ccc(-c3cccnc3C(=O)N3CCC(Nc4ccc(F)c(F)c4)CC3)cc2)C[C@H](C)N1 registered its EC50 at < 3.16 µM

The compound identified as C[C@@H]1CN(Cc2ccc(-c3cccnc3C(=O)N3CCC(Nc4cc(F)cc(F)c4)CC3)cc2F)C[C@H](C)N1 registered its EC50 at < 3.16 µM

The compound identified as C[C@@H]1CN(Cc2ccc(-n3ccnc3C(=O)N3CCC(Nc4ccc(F)cc4)CC3)cc2)C[C@H](C)N1 registered its EC50 at < 3.16 µM

The compound identified as C[C@@H]1CN(Cc2ccc(-c3cccnc3C(=O)N3CCC(Nc4ccc(F)cc4)CC3)cc2F)C[C@H](C)N1 registered its EC50 at < 3.16 µM

Reference source for all entries: patent US20080312209A1
